Hello, the source for this data is paper PMC3328272, in case you need it.

- subject.of.test: T1, HIV-1 Nef-SF2, untagged (HIV-1 (SF2), UniProt P03407)
- T1 construct: also called Nef (B-clade allele SF2); source: E. coli, purified without N-terminal His tag (anion exchange HiPrep Q FF, gel filtration Superdex 75)
- protocol.details: SPR
- cond: both partners purified
pKd: −log10 of the molar value.
experimental.readout: pKd

INSERT INTO assay_data (binder, experimental_readout, numeric_readout) VALUES
  ('wild-type mouse Hck SH3 domain (domain or fragment, UniProt P08103 76-136, looked up, also called mHck SH3; mSH3; source: E. coli BL21(DE3)pLysS, purified (anion exchange, IMAC, size-exclusion chromatography)) SEDTIVVALYDYEAIHREDLSFQKGDQMVVLEEAGEWWKARSLATKKEGYIPSNYVARVNS', 'pKd', 6.89);
